System: MCF7
Experiment: cells
Assay type: functional, cell-based
Settings: Homo sapiens
Reported IC50 values are given for each entry in this list.

Here are 3 compounds together with their reported answers.
Value of measured IC50 for the entry O=C(NO)c1ccc(Cn2cnc3c(Nc4ccc(F)c(Cl)c4)ncnc32)cc1 : 9.3 µM

Value of measured IC50 for the entry O=C(NO)c1ccc(Cn2cnc3c(O)ncnc32)cc1 : > 50 µM

Value of measured IC50 for the entry COc1cc(Nc2ncnc3c2ncn3Cc2ccc(C(=O)NO)cc2)cc(OC)c1OC : > 50 µM

New cases:
Value of measured IC50 for the entry O=C(NO)c1ccc(Cn2cnc3c(Nc4ccccc4)ncnc32)cc1 : > 50 µM

Value of measured IC50 for the entry O=C(NO)c1ccc(Cn2cnc3c(Nc4ccc(Cl)c(C(F)(F)F)c4)ncnc32)cc1 : 13.2 µM

Value of measured IC50 for the entry O=C(NO)c1cccc(Cn2cnc3c(O)ncnc32)c1 : > 50 µM

* * *

Assay: Stability in mouse liver microsome assessed as intrinsic clearance at 1 uM measured for 60 mins by LC-MS/MS analysis
Assay type: ADME
Conditions: liver microsomes, read-out: CLH
PARAMETER: microsomal CLint at 1 µM
Just so you know, I need the unit written after the number.

Here are 3 molecules together with their reported answers.
Value of measured microsomal CLint at 1 µM for the entry O=C(NO)c1ccc(Cn2cnc3c(Nc4ccc(F)c(Cl)c4)ncnc32)cc1 : 20 µL/min/mg

Value of measured microsomal CLint at 1 µM for the entry COc1ccc(Nc2ncnc3c2ncn3Cc2ccc(C(=O)NO)cc2)cc1 : 14 µL/min/mg

Value of measured microsomal CLint at 1 µM for the entry CCN(CC)CCNC(=O)c1c(C)[nH]c(/C=C2\C(=O)Nc3ccc(F)cc32)c1C : 58 µL/min/mg

Next molecule, please.
Value of measured microsomal CLint at 1 µM for the entry O=C(NO)c1ccc(Cn2cnc3c(Nc4ccc(Br)cc4F)ncnc32)cc1 : 20 µL/min/mg

* * *

Reported IC50 values are given for each entry in this list.
Test system: MCF7
Test: cells
Type: functional, cell-based
Settings: Homo sapiens

Here are 5 compounds together with their reported answers.
Value of measured IC50 for the entry COc1ccc(Nc2ncnc3c2ncn3Cc2ccc(C(=O)NO)cc2)cc1 : 19.5 µM

Value of measured IC50 for the entry O=C(NO)c1ccc(Nc2ncnc3[nH]cnc23)cc1 : > 50 µM

Value of measured IC50 for the entry COc1ccc(Nc2ncnc3c2ncn3Cc2ccc(C(=O)NO)cc2)cc1OC : > 50 µM

Value of measured IC50 for the entry Cc1ccc(Nc2ncnc3c2ncn3Cc2ccc(C(=O)NO)cc2)cc1S(N)(=O)=O : > 50 µM

Value of measured IC50 for the entry O=C(NO)c1ccc(Cn2cnc3c(Nc4ccc(Br)cc4F)ncnc32)cc1 : 21.7 µM

Next compound, please.
Value of measured IC50 for the entry COC(=O)c1ccc(Cn2cnc3c(Nc4ccc(Cl)c(C(F)(F)F)c4)ncnc32)cc1 : > 50 µM

* * *

Molecular target: CYP2C9 (Homo sapiens, UniProt P11712)
Sequence (P11712 whole entry): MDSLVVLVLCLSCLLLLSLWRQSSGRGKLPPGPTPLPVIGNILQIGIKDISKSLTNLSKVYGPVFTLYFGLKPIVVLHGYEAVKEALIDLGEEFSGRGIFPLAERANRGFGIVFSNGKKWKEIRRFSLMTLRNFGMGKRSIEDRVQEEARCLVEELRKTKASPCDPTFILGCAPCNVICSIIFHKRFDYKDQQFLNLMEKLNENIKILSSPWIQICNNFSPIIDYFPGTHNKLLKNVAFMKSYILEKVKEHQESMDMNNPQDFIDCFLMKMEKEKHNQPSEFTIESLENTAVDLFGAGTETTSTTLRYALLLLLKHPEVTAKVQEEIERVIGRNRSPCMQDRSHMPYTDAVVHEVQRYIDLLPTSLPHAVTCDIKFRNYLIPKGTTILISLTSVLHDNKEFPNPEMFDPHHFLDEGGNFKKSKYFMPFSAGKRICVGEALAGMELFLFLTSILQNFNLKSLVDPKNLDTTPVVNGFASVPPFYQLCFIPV
Assay: Inhibition of CYP2C9 in liver microsomes (unknown origin) at 10 uM incubated for 10 mins relative to control
Type: ADME, Microsome
PARAMETER: inhibition at 10 min, 10 µM (%)
Just the number please, in %, no unit attached.

Here are 5 compounds together with their reported answers.
Value of measured inhibition at 10 min, 10 µM for the entry O=C(NO)c1ccc(Cn2cnc3c(Nc4ccc(F)c(Cl)c4)ncnc32)cc1 : 52

Value of measured inhibition at 10 min, 10 µM for the entry C=C[C@H]1C[N@@]2CC[C@H]1C[C@@H]2[C@@H](O)c1ccnc2ccc(OC)cc12 [QUINIDINE] : 10

Value of measured inhibition at 10 min, 10 µM for the entry O=C(NO)c1ccc(Cn2cnc3c(Nc4ccc(Br)cc4F)ncnc32)cc1 : 42

Value of measured inhibition at 10 min, 10 µM for the entry CC(=O)N1CCN(c2ccc(OCC3COC(Cn4ccnc4)(c4ccc(Cl)cc4Cl)O3)cc2)CC1 (stereo unspecified) [KETOCONAZOLE] : 10

Value of measured inhibition at 10 min, 10 µM for the entry Cc1nc2c([nH]1)c(=O)n(C)c(=O)n2Cc1ccco1 [FURAFYLLINE] : 10

New cases:
Value of measured inhibition at 10 min, 10 µM for the entry COc1ccc(Nc2ncnc3c2ncn3Cc2ccc(C(=O)NO)cc2)cc1 : 34

* * *

Reported half-life at 1 µM values are given for each entry in this list.
Assay: Stability in mouse liver microsome assessed as half life at 1 uM measured for 60 mins by LC-MS/MS analysis
Format: ADME
Conditions: liver microsomes
Just the number please, in min, no unit attached.

Value of measured half-life at 1 µM for the entry CCN(CC)CCNC(=O)c1c(C)[nH]c(/C=C2\C(=O)Nc3ccc(F)cc32)c1C [SUNITINIB] : 12

Value of measured half-life at 1 µM for the entry O=C(NO)c1ccc(Cn2cnc3c(Nc4ccc(F)c(Cl)c4)ncnc32)cc1 : 35

Value of measured half-life at 1 µM for the entry O=C(NO)c1ccc(Cn2cnc3c(Nc4ccc(Br)cc4F)ncnc32)cc1 : 35

Value of measured half-life at 1 µM for the entry COc1ccc(Nc2ncnc3c2ncn3Cc2ccc(C(=O)NO)cc2)cc1 : 50

* * *

Reported half-life at 1 µM values are given for each entry in this list.
Assay: Stability in human liver microsome assessed as half life at 1 uM measured for 60 mins by LC-MS/MS analysis
Type: ADME
Details: liver microsomes

Here are 3 molecules together with their reported answers.
Value of measured half-life at 1 µM for the entry O=C(NO)c1ccc(Cn2cnc3c(Nc4ccc(F)c(Cl)c4)ncnc32)cc1 : > 2 h

Value of measured half-life at 1 µM for the entry COc1ccc(Nc2ncnc3c2ncn3Cc2ccc(C(=O)NO)cc2)cc1 : > 2 h

Value of measured half-life at 1 µM for the entry O=C(NO)c1ccc(Cn2cnc3c(Nc4ccc(Br)cc4F)ncnc32)cc1 : > 2 h

Next molecule, please.
Value of measured half-life at 1 µM for the entry CCN(CC)CCNC(=O)c1c(C)[nH]c(/C=C2\C(=O)Nc3ccc(F)cc32)c1C : 0.55 h
